- test details: qHTS assay for small molecule activators of the heat shock response signaling pathway (AID 743210);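 note: HeLa cells with beta-lactamase reporter driven by heat shock elements; % is set by controls: 0 for no effect and ±100 for the full control effect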
- setup conditions: HeLa HSE-bla reporter, beta-lactamase ratio, 5 h; series mostly up to 62.6 µM
Records with an inconclusive call do not appear. The source made the active and inactive calls. Calls come from the whole dose curve; as a rule, active = well fitted activation curve with a large enough effect in the signal ratio in the repeat runs, with a control signal flat (not every such curve was filed as active); inconclusive = weak or mixed curves; inactive = flat fitted curve, though single readings scatter; the % refers to the signal ratio.
measured endpoint: activation

// worked examples, activation included
compound	activation
C#CC(O)C(CC)CCCC (stereo not drawn)	inactive
CCn1cc(C(=O)O)c(=O)c2cc(F)c(N3CCN(C)CC3)cc21	inactive
FC(F)(F)C(F)(F)C(F)(F)C(F)(F)C(F)(F)C(F)(F)C(F)(F)C(F)(F)C(F)(F)C(F)(F)F	2.05% [at 5.95 µM] (inactive)
CCCCCCC(=O)OCC	inactive
CCCCCCCCCCCCCCCCCCOCC(O)CO (stereo not drawn)	inactive

Enquiry: // lookup activation for O=[N+]([O-])c1ccc(Oc2ccc([N+](=O)[O-])cc2)cc1
Return: inactive

Enquiry: // lookup activation for CC(C)[N+](C)(C)CC(O)COc1cccc2ccccc12 (stereo not drawn)
Return: inactive

Enquiry: // lookup activation for C(=C(c1ccccc1)c1ccccc1)c1ccccc1
Return: inactive
